- studySystem: KRas-G12D (Homo sapiens, UniProt P01116, G12D)
- Construct: insert the HiBiT tag onto the N-terminus of one or more of the endogenous KRas alleles; host or cells: AsPC-1 HiBiT-KRasG12D knock-in clone (one tagged allele, two untagged KRasG12D alleles)
- Sequence (P01116 1-188 isoform P01116-2 G12D): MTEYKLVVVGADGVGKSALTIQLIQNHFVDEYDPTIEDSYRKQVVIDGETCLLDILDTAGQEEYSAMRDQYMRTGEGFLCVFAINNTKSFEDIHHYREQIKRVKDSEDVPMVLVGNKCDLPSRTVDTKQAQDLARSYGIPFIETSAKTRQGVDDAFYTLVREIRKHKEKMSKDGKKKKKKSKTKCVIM
- protocolDescription: HiBiT Degradation Assay (G12D), AsPC-1 HiBiT-KRasG12D cells, 24 hr
- Format: cell-based
- measurementConditions: AsPC-1 cells
measurementLabel: DC50

Completed entries (count: 2):
| compound | result |
| --- | --- |
| C#Cc1c(F)ccc2cc(O)cc(-c3ncc4c(N5CC6CCC(C5)N6)nc(OCCN5CCC(CC6CCN(c7cccc8c7CN(C7CCC(=O)NC7=O)C8=O)CC6)CC5)nc4c3F)c12 (stereo not drawn) [Compound 35] | 0.1 to 5.25 µM |
| C#Cc1c(F)ccc2cc(O)cc(-c3ncc4c(N5CC6CCC(C5)N6)nc(OCCN5CCC(CN6CCN(CC7CCN(c8cccc9c8CN(C8CCC(=O)NC8=O)C9=O)CC7)CC6)CC5)nc4c3F)c12 (stereo not drawn) [Compound 136] | < 5.1 µM |

# context switch: different compound, same DC50
Query: Give the measured DC50 for C#Cc1c(F)ccc2cc(O)cc(-c3ncc4c(N5CC6CCC(C5)N6)nc(OCC5(CN6CCC7(CCN(CC8CCN(c9ccc%10c(c9)n(C)c(=O)n%10C9CCC(=O)NC9=O)CC8)CC7)CC6)CC5)nc4c3F)c12 (stereo not drawn) [Compound 193]
Reply: < 5.1 µM
